Listing of IC50 toward Glycogen synthase kinase-3 beta (Homo sapiens), each taken from a published source.

Would you please look over these solved cases?
Per the reported Glycogen synthase kinase-3 beta (Homo sapiens) data, CCN1CCCc2cc(ccn2)-c2ncnc(n2)Nc2cccc(c2)CCNC(=O)C1 has IC50 of < 10 nM

Per the reported Glycogen synthase kinase-3 beta (Homo sapiens) data, CN(C)c1ccc(/C=N/Nc2ncnc3c2cnn3-c2ccccn2)cn1 has IC50 of 1000 to 10000 nM

Per the reported Glycogen synthase kinase-3 beta (Homo sapiens) data, O=c1cc(-c2ccncn2)nc2n1CCCN2C[C@@H](O)c1ccccc1 has IC50 of 2 nM

Per the reported Glycogen synthase kinase-3 beta (Homo sapiens) data, N#Cc1sc(NC2CCCN(c3nc(-c4ccc(Cl)cc4Cl)cc4ncnn34)C2)nc1N (centres unmarked) has IC50 of 5 nM

Per the reported Glycogen synthase kinase-3 beta (Homo sapiens) data, N#Cc1ccc(-c2ccnc(NCCc3ccccn3)n2)cc1 has IC50 of ≤ 10000 nM

---
Per the reported Glycogen synthase kinase-3 beta (Homo sapiens) data, O=C1NCCCc2cc(ccn2)-c2ncnc(n2)Nc2cc(Cl)cc(c2)CN2CCCC1C2 (centres unmarked) has IC50 of 10 to 100 nM

Per the reported Glycogen synthase kinase-3 beta (Homo sapiens) data, CCCCc1ccc(-c2cc3nccn3c(NCCNc3ccc([N+](=O)[O-])c(N)n3)n2)cc1 has IC50 of 188 nM

Per the reported Glycogen synthase kinase-3 beta (Homo sapiens) data, c1ccc(Cc2cnc(NCCNc3ccccn3)nc2-c2ccccc2)cc1 has IC50 of ≤ 10000 nM

* * *

Listing of IC50 toward Glycogen synthase kinase-3 beta (Homo sapiens), each taken from a published source.

Would you please look over these solved cases?
The molecule CCOC(=O)c1cnc(NCCNc2ncc(C#N)c(N)n2)nc1-c1ccc(C#N)cc1 showed IC50 equal to ≤ 1 µM

The molecule O=C(Nc1c[nH]nc1C(=O)NC1CCNCC1)c1ccc(Cl)cc1 showed IC50 equal to < 10 µM

The molecule CC1CCn2c(nc(-c3ccncn3)cc2=O)N1C[C@@H](O)c1ccccc1 (stereo partly drawn) showed IC50 equal to 0.012 µM

The molecule Cc1cn(-c2cnc(NCCNc3ccc([N+](=O)[O-])c(N)n3)nc2-c2ccc(Cl)cc2Cl)c(C)n1 showed IC50 equal to ≤ 1 µM

---
The molecule CCOC(=O)c1cnc(NCCNc2ccc([N+](=O)[O-])cn2)nc1-c1ccc(-n2cnnc2)cc1 showed IC50 equal to ≤ 1 µM

The molecule CCOC(=O)c1cnc(NCCNc2ccc([N+](=O)[O-])cn2)nc1-c1ccc(C(C)(C)C)cc1 showed IC50 equal to ≤ 1 µM

The molecule CCOC(=O)c1cnc(NCCNc2ccc([N+](=O)[O-])cn2)nc1-c1cccc([N+](=O)[O-])c1 showed IC50 equal to ≤ 10 µM

The molecule CNCC(=O)Nc1cnc(NCCNc2ccc([N+](=O)[O-])c(N)n2)nc1-c1ccc(Cl)cc1Cl showed IC50 equal to ≤ 1 µM

The molecule O=C(NCc1cccnc1)c1ccc(-c2ccnc(NCCNc3ccc([N+](=O)[O-])cn3)n2)cc1 showed IC50 equal to ≤ 10 µM

The molecule O=[N+]([O-])c1ccc(NCCNc2ccc([N+](=O)[O-])c(NCc3ccc(Cl)cc3Cl)n2)nc1 showed IC50 equal to ≤ 10 µM

The molecule NC(=O)c1ccc(-c2ccnc(NCCCc3nc(Cl)c(Cl)[nH]3)n2)cc1 showed IC50 equal to ≤ 1 µM

The molecule CCOC(=O)c1c(CC)nc(NCCNc2ncccc2[N+](=O)[O-])nc1-c1ccc(C(N)=O)cc1 showed IC50 equal to ≤ 10 µM
